study system: furin, P09958;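 also: purified furin at 1:10 enzyme:substrate in 50 mM HEPES pH 7.5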
Sequence (P09958 whole entry): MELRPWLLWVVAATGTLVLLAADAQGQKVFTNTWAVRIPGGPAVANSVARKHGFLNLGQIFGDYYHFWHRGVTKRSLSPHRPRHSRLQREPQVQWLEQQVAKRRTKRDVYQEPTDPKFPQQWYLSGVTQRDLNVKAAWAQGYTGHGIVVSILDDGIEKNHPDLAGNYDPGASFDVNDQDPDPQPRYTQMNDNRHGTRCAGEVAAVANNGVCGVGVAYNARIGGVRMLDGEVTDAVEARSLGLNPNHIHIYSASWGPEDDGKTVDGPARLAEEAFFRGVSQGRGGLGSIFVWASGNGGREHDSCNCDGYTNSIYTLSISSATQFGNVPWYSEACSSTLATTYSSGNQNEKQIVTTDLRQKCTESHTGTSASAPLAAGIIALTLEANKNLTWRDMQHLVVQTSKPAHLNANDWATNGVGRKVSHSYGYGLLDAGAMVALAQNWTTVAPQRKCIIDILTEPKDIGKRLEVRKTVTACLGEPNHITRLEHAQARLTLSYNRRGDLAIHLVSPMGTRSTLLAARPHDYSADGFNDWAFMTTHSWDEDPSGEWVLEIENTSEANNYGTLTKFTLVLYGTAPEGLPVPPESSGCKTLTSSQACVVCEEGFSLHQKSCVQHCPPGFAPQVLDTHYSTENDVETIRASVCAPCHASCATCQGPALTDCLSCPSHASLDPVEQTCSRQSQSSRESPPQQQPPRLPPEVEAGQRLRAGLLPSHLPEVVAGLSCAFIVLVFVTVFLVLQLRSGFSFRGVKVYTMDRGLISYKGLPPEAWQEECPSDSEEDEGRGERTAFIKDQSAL
test: furin cleavage Z-score vs untreated control; higher = more cleavage, active = 3.5 or more, inactive = 1 or less, 8 variable residues between constant flanks
particulars: 30 min
This is one part of the list. The true hit rate is not given.
Given measured furin cleavage Z-score, output 1 if it is greater than or equal to -0.1 and 0 if not.

Sample answers from the record:
>  <sequence text>
CAKWLRFIRGAGNASASA [FS-1022]

>  <group>
1

$$$$
>  <sequence text>
CAMEWCSQHLAGNASASA [HC1708]

>  <group>
1

$$$$
>  <sequence text>
CASTGCSAHLAGNASASA [HC2516]

>  <group>
0

$$$$
>  <sequence text>
CATKNRQRRGAGNASASA [FS-1094]

>  <group>
1

$$$$
>  <sequence text>
CADIWDWICEAGNASASA [HC1150]

>  <group>
0

$$$$
>  <sequence text>
CAGAYMSKAHAGNASASA [HC793]

>  <group>
0

$$$$

Here is the next item to consider.
**Query** Decide: is the reported value of furin cleavage Z-score for CANCLRQRRGAGNASASA [FS-465] equal to or greater than -0.1?
**Result** 0
